Test system: HT-29
Assay: NCI tumour cell line growth inhibition, 48 h
The source made the active and inactive calls. No stated cut-off is given here; in the data, active = GI50 up to about 1.1 µM and inactive = higher.
Respond using exactly one of the listed classes: active, inactive

• CC(C)[Si]1(C(C)C)OCC2OC(n3ccc(=O)[nH]c3=O)C(O)(CO)C2O[Si](C(C)C)(C(C)C)O1 (stereo not drawn) = inactive

Data request: // return assay outcome for Cc1nc2ccc(C(F)(F)F)cc2nc1Nc1ccc(Cl)c(Cl)c1
Data returned: inactive

Data request: Call for entry COC(=O)C#CC(N)=O :
Data returned: inactive

Data request: Hi, do you know how C=CNC(=O)NC(=O)CSc1nc(=O)c(-c2ccccc2NC(=O)C(F)(F)F)n[nH]1 came out in this test?
Data returned: inactive

Data request: Which result was noted for this molecule in the test: CC(=O)C(=[N+]=[N-])C(=O)OCCOC(=O)C(=[N+]=[N-])C(C)=O
Data returned: active

Data request: Name the outcome recorded for CC1(C)C2CCC1(C)[C@H](O)[C@H]2Nc1cc(C(F)(F)F)cc(C(F)(F)F)c1 (stereo partly drawn) in the assay.
Data returned: inactive

Data request: Query: recorded result category for O=C(O)c1ccccc1/N=N/c1ccc2oc(=O)c(C(=O)Nc3ccccc3)cc2c1 in this test
Data returned: inactive

Data request: Which outcome was assigned to COC(=O)/C=C1/OC(c2ccccc2)=CC1=O in this test?
Data returned: inactive

These data points were gathered from ChEMBL document CHEMBL1201862.
